ASSAY_DETAILS: Urinary excretion of oral sugar probes
Assay type: in vivo, human
EXPERIMENTAL_CONDITIONS: 12-24 hour urine collection; healthy subjects, oral cocktail; mean ± SD/SE
PROPERTY: Percent urinary excretion of oral sugar probe (%)

INSERT INTO results (compound, measured_result) VALUES
  ('OC[C@@H](O)[C@@H](O)[C@H](O)[C@H](O)CO', 6.4),
  ('OC[C@H]1O[C@H](O[C@]2(CCl)O[C@H](CCl)[C@@H](O)[C@@H]2O)[C@H](O)[C@@H](O)[C@H]1Cl', 0.3),
  ('OC[C@H]1O[C@@H](O[C@@H]2[C@@H](CO)O[C@](O)(CO)[C@H]2O)[C@H](O)[C@@H](O)[C@H]1O', 1.4),
  ('OC[C@H]1O[C@@](CO)(O[C@H]2O[C@H](CO)[C@@H](O)[C@H](O)[C@H]2O)[C@@H](O)[C@@H]1O [Sucrose, α-D-glucopyranosyl-β-D-fructofuranoside]', 0.8);

Reference for the values: paper PMC4339548
